protocol: in vivo
Parameters: species or system mice
measurement.context: male, NOD.Cg-Rag1tm1Mom Il2rgtm1Wjl/SzJ (NRG), mouse, iv, total radioactivity, Biodistribution: Small Intestine
Where a SMILES comes first, the peptide text is derived from it. Bridges are numbered along the chain shown (N, C = ends). [ ]: non-standard residue; d: D form. The star is where a group is joined. X3 = O=C(O)CN1CCN(CC(=O)O)CCN(CC(=O)N[C@@H](CS(=O)(=O)O)C(=O)N[C@@H](CCCCNC(=O)CCCc2ccc(Br)cc2)C(=O)*)CCN(CC(=O)O)CC1; X5 = O=C(O)CN1CCN(CC(=O)O)CCN(CC(=O)N[C@@H](CS(=O)(=O)O)C(=O)N[C@@H](CCCCNC(=O)CCCc2ccc(Cl)cc2)C(=O)*)CCN(CC(=O)O)CC1; X6 = COc1ccc(CCCC(=O)NCCCC[C@H](NC(=O)[C@H](CS(=O)(=O)O)NC(=O)CN2CCN(CC(=O)O)CCN(CC(=O)O)CCN(CC(=O)O)CC2)C(=O)*)cc1; 2Nal = N[C@@H](Cc1ccc2ccccc2c1)C(=O)O; Lys(iPr) = CC(C)NCCCC[C@H](N)C(=O)O
# tissue uptake at 1 h per entry
Numbers only; they are read as %ID/g.

Record excerpt, results attached:
>  <compound>
CC(C)NCCCC[C@H](NC(=O)[C@H]1CCC(=O)N[C@@H](CCCCNC(=O)[C@H](CCCCNC(=O)CCCc2ccc(Br)cc2)NC(=O)[C@H](CS(=O)(=O)O)NC(=O)CN2CCN(CC(=O)O)CCN(CC(=O)O)CCN(CC(=O)O)CC2)C(=O)N[C@@H](Cc2ccc(O)cc2)C(=O)N[C@@H](CCCCNC(C)C)C(=O)N[C@H](CCCNC(=N)N)C(=O)N[C@@H](Cc2ccc3ccccc3c2)C(=O)N[C@H](C)C(=O)N1)C(N)=O [[^177Lu]Lu-BL34L20, metal not drawn] (K(X3)Y[Lys(iPr)][dR][2Nal][dA][dE][Lys(iPr)]-NH2; lactam N-7)

>  <unit.label>
%ID/g

>  <tissue uptake at 1 h>
1.16

$$$$
>  <compound>
CC(C)NCCCC[C@H](NC(=O)[C@H]1CCC(=O)N[C@@H](CCCCNC(=O)[C@H](CCCCNC(=O)CCCc2ccc(Cl)cc2)NC(=O)[C@H](CS(=O)(=O)O)NC(=O)CN2CCN(CC(=O)O)CCN(CC(=O)O)CCN(CC(=O)O)CC2)C(=O)N[C@@H](Cc2ccc(O)cc2)C(=O)N[C@@H](CCCCNC(C)C)C(=O)N[C@H](CCCNC(=N)N)C(=O)N[C@@H](Cc2ccc3ccccc3c2)C(=O)N[C@H](C)C(=O)N1)C(N)=O [[^68Ga]Ga-BL34L16, metal not drawn] (K(X5)Y[Lys(iPr)][dR][2Nal][dA][dE][Lys(iPr)]-NH2; lactam N-7)

>  <unit.label>
%ID/g

>  <tissue uptake at 1 h>
0.86

$$$$
>  <compound>
COc1ccc(CCCC(=O)NCCCC[C@H](NC(=O)[C@H](CS(=O)(=O)O)NC(=O)CN2CCN(CC(=O)O)CCN(CC(=O)O)CCN(CC(=O)O)CC2)C(=O)NCCCC[C@@H]2NC(=O)CC[C@H](C(=O)N[C@@H](CCCCNC(C)C)C(N)=O)NC(=O)[C@@H](C)NC(=O)[C@H](Cc3ccc4ccccc4c3)NC(=O)[C@@H](CCCNC(=N)N)NC(=O)[C@H](CCCCNC(C)C)NC(=O)[C@H](Cc3ccc(O)cc3)NC2=O)cc1 [[^68Ga]Ga-BL34L7, metal not drawn] (K(X6)Y[Lys(iPr)][dR][2Nal][dA][dE][Lys(iPr)]-NH2; lactam N-7)

>  <unit.label>
%ID/g

>  <tissue uptake at 1 h>
0.34

$$$$

Moving on to another compound below.
Fill in the blank: the reported tissue uptake at 1 h of CC(C)NCCCC[C@H](NC(=O)[C@@H]1CCSc2c3cccc([N+](=O)[O-])c3cn2[C@@H](CCCCNC(=O)[C@H](CS(=O)(=O)O)NC(=O)CN2CCN(CC(=O)O)CCN(CC(=O)O)CCN(CC(=O)O)CC2)C(=O)CC(Cc2ccc(O)cc2)C(=O)N[C@@H](CCCCNC(C)C)C(=O)N[C@H](CCCNC(=N)N)C(=O)N[C@@H](Cc2ccc3ccccc3c2)C(=O)N[C@H](C)C(=O)N1)C(N)=O (stereo partly shown) [[^68Ga]Ga-3NOPA-BL34L2, metal not drawn] is ____.
0.58

Hello, the source for this data is patent US20250242064A1, in case you need it.
